test system: L1210 leukemia ip in BDF1 mice, survival T/C; test: NCI In Vivo Anticancer Drug Screen. Data for tumor model L1210 Leukemia (intraperitoneal) in B6D2F1 (BDF1) mice; conditions: endpoint: mean survival time; dose: 400.0 mg/kg/injection; schedule: Q01DX001 (ip); vehicle: saline; higher = longer survival
Toxic doses and inconclusive results are not listed.
Measured Quantity: T/C

The examples below pair each entry with its known result.
# Compound, Study Target, Measured Quantity, Value Observed
records = [
    ("O=C(O)C1CC2CCC1CC2 (configuration not stated)", "L1210 leukemia ip in BDF1 mice, survival T/C", "T/C", "100 % of control"),
    ("CC(=O)OC1CCC(=O)C2C(C(=O)O)CCCC12 (configuration not stated)", "L1210 leukemia ip in BDF1 mice, survival T/C", "T/C", "91 % of control"),
    ("COP1(=O)OCC(C)O1 (configuration not stated)", "L1210 leukemia ip in BDF1 mice, survival T/C", "T/C", "94 % of control"),
]

[ask] Please look up its T/C: Cc1cccc2c(Nc3ccc(NS(C)(=O)=O)cc3)c3ccc([N+](=O)[O-])cc3nc12
[reply] 103 % of control

[ask] Please look up its T/C: CN(C)N=Nc1n[nH]nc1C(N)=O
[reply] 115 % of control

[ask] Please look up its T/C: Cc1ccc(C(CS(=O)(=O)c2ccc(C)cc2)c2ccccc2)cc1 (configuration not stated)
[reply] 94 % of control

Entry source: PubChem BioAssay AID248
